MIC values, listed per item
- Tested on: Enterococcus faecalis
- procedure-summary: In vitro minimum inhibitory concentration against Streptococcus faecalis ATCC 7080
- Assay type: functional
Field format: number, assumed µg/mL, no unit text.

The examples below pair each entry with its known result.
CC(=O)NC1C(O[C@@H]2c3ccc(c(Cl)c3)Oc3cc4cc(c3O)Oc3ccc(cc3Cl)C[C@H]3NC(=O)[C@H](N)c5ccc(O)c(c5)Oc5cc(O)cc(c5)[C@H](NC3=O)C(=O)N[C@H]4C(=O)N[C@H]3C(=O)N[C@@H]2C(=O)N[C@H](C(=O)NCCCN(C)C)c2cc(O)cc(O)c2-c2cc3ccc2O)OC(CO)C(O)C1O (stereo not given in full): 0.25
CC(=O)N[C@@H]1[C@H](O[C@@H]2c3ccc(c(Cl)c3)Oc3cc4cc(c3O[C@@H]3O[C@@H](CO)[C@@H](O)[C@H](O)[C@@H]3NC(=O)CCCCCCC(C)C)Oc3ccc(cc3Cl)C[C@H]3NC(=O)[C@H](N)c5ccc(O)c(c5)Oc5cc(O)cc(c5)[C@H](NC3=O)C(=O)N[C@H]4C(=O)N[C@H]3C(=O)N[C@@H]2C(=O)N[C@H](C(=O)NCC(=O)O)c2cc(O)cc(O[C@H]4O[C@H](CO)[C@@H](O)[C@@H](O)[C@@H]4O)c2-c2cc3ccc2O)O[C@@H](CO)[C@@H](O)[C@@H]1O: 0.25
N[C@H]1C(=O)N[C@@H]2Cc3ccc(c(Cl)c3)Oc3cc4cc(c3O)Oc3ccc(cc3Cl)[C@@H](O)[C@@H]3NC(=O)[C@H](NC(=O)[C@@H]4NC(=O)[C@@H](NC2=O)c2cc(O)cc(c2)Oc2cc1ccc2O)c1ccc(O)c(c1)-c1c(O)cc(O)cc1[C@@H](C(=O)O)NC3=O: 0.12
NCCCCNC(=O)[C@H]1NC(=O)[C@H]2NC(=O)[C@H](NC(=O)[C@@H]3NC(=O)[C@H]4NC(=O)[C@@H](Cc5ccc(c(Cl)c5)Oc5cc3cc(c5O)Oc3ccc(cc3Cl)[C@H]2O)NC(=O)[C@H](N)c2ccc(O)c(c2)Oc2cc(O)cc4c2)c2ccc(O)c(c2)-c2c(O)cc(O)cc21: 0.12

Could you now consider this next compound?
Summary for this compound, CC(=O)N[C@@H]1[C@H](O[C@@H]2c3ccc(c(Cl)c3)Oc3cc4cc(c3O[C@@H]3O[C@@H](CO)[C@@H](O)[C@H](O)[C@@H]3NC(=O)CCCCCCC(C)C)Oc3ccc(cc3Cl)C[C@H]3NC(=O)[C@H](N)c5ccc(O)c(c5)Oc5cc(O)cc(c5)[C@H](NC3=O)C(=O)N[C@H]4C(=O)N[C@H]3C(=O)N[C@@H]2C(=O)N[C@H](C(=O)NCCCCCCN)c2cc(O)cc(O[C@H]4O[C@H](CO)[C@@H](O)[C@@H](O)[C@@H]4O)c2-c2cc3ccc2O)O[C@@H](CO)[C@@H](O)[C@@H]1O : MIC is 0.12

* * *

Reported values of ED50 for individual entries
- Test system: Streptococcus pyogenes
- procedure-summary: Subcutaneously administration into mice infected with Streptococcus pyogenes C 203
- Assay type: functional
- test-parameters: sc
Report as a plain number; the unit mg/kg is understood.

Completed entries (count: 2):
CNCCNC(=O)[C@H]1NC(=O)[C@H]2NC(=O)[C@H](NC(=O)[C@@H]3NC(=O)[C@H]4NC(=O)[C@@H](Cc5ccc(c(Cl)c5)Oc5cc3cc(c5O)Oc3ccc(cc3Cl)[C@H]2O)NC(=O)[C@H](N)c2ccc(O)c(c2)Oc2cc(O)cc4c2)c2ccc(O)c(c2)-c2c(O)cc(O)cc21: 2.2
CC(=O)N[C@@H]1[C@H](O[C@@H]2c3ccc(c(Cl)c3)Oc3cc4cc(c3O)Oc3ccc(cc3Cl)C[C@H]3NC(=O)[C@H](N)c5ccc(O)c(c5)Oc5cc(O)cc(c5)[C@H](NC3=O)C(=O)N[C@H]4C(=O)N[C@H]3C(=O)N[C@@H]2C(=O)N[C@H](C(=O)O)c2cc(O)cc(O)c2-c2cc3ccc2O)O[C@@H](CO)[C@@H](O)[C@@H]1O: 2.46

Next item in the queue.
Sample CCOC(=O)CNC(=O)[C@H]1NC(=O)[C@H]2NC(=O)[C@H](NC(=O)[C@@H]3NC(=O)[C@H]4NC(=O)[C@@H](Cc5ccc(c(Cl)c5)Oc5cc3cc(c5O[C@@H]3O[C@@H](CO)[C@@H](O)[C@H](O)[C@@H]3NC(=O)CCCCCCC(C)C)Oc3ccc(cc3Cl)[C@H]2O[C@@H]2O[C@@H](CO)[C@@H](O)[C@H](O)[C@@H]2NC(C)=O)NC(=O)[C@H](N)c2ccc(O)c(c2)Oc2cc(O)cc4c2)c2ccc(O)c(c2)-c2c(O[C@H]3O[C@H](CO)[C@@H](O)[C@@H](O)[C@@H]3O)cc(O)cc21 ; ED50 observed: 0.1
